experimental_target: substance P receptor (Homo sapiens, UniProt P25103)
Construct: The receptor was prepared from human lymphoblast cells (IM-9); endogenous in cells
Sequence (P25103 whole entry): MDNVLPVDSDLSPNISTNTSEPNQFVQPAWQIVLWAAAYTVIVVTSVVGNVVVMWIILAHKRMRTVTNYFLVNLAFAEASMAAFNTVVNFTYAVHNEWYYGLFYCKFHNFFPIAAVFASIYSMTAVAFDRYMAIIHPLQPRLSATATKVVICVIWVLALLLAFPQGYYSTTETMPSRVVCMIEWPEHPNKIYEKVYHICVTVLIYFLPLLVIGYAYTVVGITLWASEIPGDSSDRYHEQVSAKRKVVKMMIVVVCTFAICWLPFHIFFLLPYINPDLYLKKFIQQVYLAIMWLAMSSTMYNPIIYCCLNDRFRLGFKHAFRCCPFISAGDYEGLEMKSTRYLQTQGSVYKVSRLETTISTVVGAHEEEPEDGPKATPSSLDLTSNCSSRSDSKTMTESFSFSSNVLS
assay_name: Radioligand receptor binding inhibitory activity using receptor from human lymphoblast cells (IM-9), 125I-BHSP
reported_conditions: human IM-9 cell receptor, 25° C., 30 minutes, pH 7.4, n=1
Procedure: Radioligand receptor binding inhibitory activity Binding inhibitory activity using receptor from human lymphoblast cells (IM-9) The method of A. Margaret "Molecular Pharmacology 42, p.458 (1992)" was modified and used. The receptor was prepared from human lymphoblast cells (IM-9). IM-9 cells (2×10^5 cells/ml) were inoculated and incubated for 3 days (one liter), which was then subjected to centrifuge for 5 minutes at 500×g to obtain cell pellets. […]
pIC50: −log10 of the molar value.
metric_name: pIC50

line_notation=Cc1ccccc1-c1c2c(c(=O)n(C)c1C(=O)N(C)Cc1cc(C(F)(F)F)cc(C(F)(F)F)c1)CCCN2 metric_name=pIC50 readout_value=10.30

I = CN(Cc1cc(C(F)(F)F)cc(C(F)(F)F)c1)C(=O)c1c(-c2ccccc2)c2ccncc2c(=O)n1C
II = CN(Cc1cc(C(F)(F)F)cc(C(F)(F)F)c1)C(=O)c1c(-c2ccc(F)cc2)c2ncsc2c(=O)n1C
-- ask Record comparison, field pIC50: mark the lower of I and II . Pick one; state its label.
-- reply II
(II: 8.74, I: 9.21)

P = CN(Cc1cc(C(F)(F)F)cc(C(F)(F)F)c1)C(=O)c1c(-c2ccccc2)c2c(c(=O)n1C)N(C)CCC2
Q = CN(Cc1cc(C(F)(F)F)cc(C(F)(F)F)c1)C(=O)c1c(-c2ccccc2)c2c(c(=O)n1C)CNCC2
-- ask Between the entries labelled P and Q , which has a larger pIC50 value on record? Pick one; state its label.
-- reply Q

* * *

experimental_target: substance P receptor (Homo sapiens, UniProt P25103)
Construct: The receptor was prepared from human lymphoblast cells (IM-9); endogenous in cells
assay_name: Radioligand receptor binding inhibitory activity using receptor from human lymphoblast cells (IM-9), 125I-BHSP
reported_conditions: human IM-9 cell receptor, 25° C., 30 minutes, pH 7.4, n=1
pIC50: −log10 of the molar value.
metric_name: pIC50

In the examples that follow, each entry is paired with its recorded pIC50.
compound="CN(Cc1cc(C(F)(F)F)cc(C(F)(F)F)c1)C(=O)c1c(-c2ccc(F)cc2)c2ncccc2c(=O)n1C [Example 19]" experimental_target="substance P receptor (Homo sapiens, UniProt P25103)" metric_name=pIC50 readout_value=9.03
compound="CN(Cc1cc(C(F)(F)F)cc(C(F)(F)F)c1)C(=O)c1c(-c2ccc(F)cc2)c2cnccc2c(=O)n1C [Example 9]" experimental_target="substance P receptor (Homo sapiens, UniProt P25103)" metric_name=pIC50 readout_value=8.92

P = CN(Cc1cc(C(F)(F)F)cc(C(F)(F)F)c1)C(=O)c1c(-c2ccccc2)c2scnc2c(=O)n1C [Example 43]
Q = CN(Cc1cc(C(F)(F)F)cc(C(F)(F)F)c1)C(=O)c1c(-c2ccc(F)cc2)c2ccc[n+](C)c2c(=O)n1C [Example 29]
-- ask Between the entries labelled P and Q , which has a larger pIC50 value on record? Pick one; state its label.
-- reply Q
(Q: 9.22, P: 9.00)

* * *

experimental_target: substance P receptor (Homo sapiens)
Construct: The receptor was prepared from human lymphoblast cells (IM-9); endogenous in cells
assay_name: Radioligand receptor binding inhibitory activity using receptor from human lymphoblast cells (IM-9), 125I-BHSP
reported_conditions: human IM-9 cell receptor, 25° C., 30 minutes, pH 7.4, n=1
metric_name: IC50 (pM)

In the examples that follow, each entry is paired with its recorded IC50.
line_notation=CN(Cc1cc(C(F)(F)F)cc(C(F)(F)F)c1)C(=O)c1c(-c2ccc(F)cc2)c2ccc(=O)n(C)c2c(=O)n1C experimental_target="substance P receptor (Homo sapiens)" readout_value=350
line_notation=CN(Cc1cc(C(F)(F)F)cc(C(F)(F)F)c1)C(=O)c1c(-c2ccc(F)cc2)c2ccn(C)c2c(=O)n1C experimental_target="substance P receptor (Homo sapiens)" readout_value=280

I = CN(Cc1cc(C(F)(F)F)cc(C(F)(F)F)c1)C(=O)c1c(-c2ccccc2)c2cccnc2c(=O)n1C
II = Cc1ccccc1-c1c(C(=O)N(C)Cc2cc(C(F)(F)F)cc(C(F)(F)F)c2)n(C)c(=O)c2sccc12
-- ask Between the entries labelled I and II , which has a larger IC50 value on record? Pick one; state its label.
-- reply I
(I: 340 pM, II: 200 pM)

Cited source for all entries: patent US5585385A
